- Tested system: NK3 (Homo sapiens)
- Sequence (P29371 whole entry): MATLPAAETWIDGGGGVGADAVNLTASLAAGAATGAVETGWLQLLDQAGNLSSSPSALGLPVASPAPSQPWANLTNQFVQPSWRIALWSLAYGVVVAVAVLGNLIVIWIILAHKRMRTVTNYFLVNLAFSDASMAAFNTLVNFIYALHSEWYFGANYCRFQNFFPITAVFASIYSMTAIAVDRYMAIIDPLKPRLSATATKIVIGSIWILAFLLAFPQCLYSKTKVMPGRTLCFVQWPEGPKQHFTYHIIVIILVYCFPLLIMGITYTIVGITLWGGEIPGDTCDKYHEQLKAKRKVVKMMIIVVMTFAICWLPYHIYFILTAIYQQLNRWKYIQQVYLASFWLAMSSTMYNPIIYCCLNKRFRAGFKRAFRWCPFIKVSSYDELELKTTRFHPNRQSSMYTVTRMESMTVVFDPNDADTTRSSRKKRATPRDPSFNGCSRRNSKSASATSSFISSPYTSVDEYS
- Experimental protocol: Signal transduction (ST), intracellular Ca++ FLIPR, NK3
- Type: cell-based
- Experimental parameters: antagonist, read-out: NK3 pIC50 (converted)
Recorded endpoint: log10(IC50) (log10 of the value in nM)
Transform log10 | Measure IC50 | Unit nM

Below, each entry is followed by its recorded log10(IC50) result.
{"columns": ["Compound", "log10(IC50)"],
 "data": [
  ["O=C1OC2(CCN1Cc1ccoc1)CCN(C1CCN(C(=O)c3cc(C(F)(F)F)cc(C(F)(F)F)c3)C(Cc3ccccc3)C1)CC2 (stereo not drawn)", 3.80],
  ["Cn1cccc1CN1CCC2(CCN(C3CCN(C(=O)c4cc(C(F)(F)F)cc(C(F)(F)F)c4)C(Cc4ccccc4)C3)CC2)OC1=O (single isomer, unassigned) [Compound 2.9]", 3.50],
  ["CC(C)(C)C(=O)N1CCC2(CC1)CCN(C1CCN(C(=O)c3cc(C(F)(F)F)cc(C(F)(F)F)c3)C(Cc3ccccc3)C1)C(=O)O2 (stereo not drawn)", 1.90],
  ["CCC(CC)CN1CCC2(CCN(C3CCN(C(=O)c4cc(C(F)(F)F)cc(C(F)(F)F)c4)C(Cc4ccccc4)C3)CC2)OC1=O (single isomer, unassigned) [Compound 2.4]", 3.90],
  ["O=C1OC2(CCN1Cc1ccsc1)CCN(C1CCN(C(=O)c3cc(C(F)(F)F)cc(C(F)(F)F)c3)C(Cc3ccccc3)C1)CC2 (stereo not drawn)", 3.40]
]}

Next compound, log10(IC50) to be filled in.
Provide log10(IC50) value for the following compound: O=C1OC2(CCN1Cc1ccc(O)cc1)CCN(C1CCN(C(=O)c3cc(C(F)(F)F)cc(C(F)(F)F)c3)C(Cc3ccccc3)C1)CC2 (stereo not drawn)
3.30

====

Kindly supply the reported IC50 values for the records listed here.
- Tested system: UniProt:P21452
- Sequence (P21452 whole entry): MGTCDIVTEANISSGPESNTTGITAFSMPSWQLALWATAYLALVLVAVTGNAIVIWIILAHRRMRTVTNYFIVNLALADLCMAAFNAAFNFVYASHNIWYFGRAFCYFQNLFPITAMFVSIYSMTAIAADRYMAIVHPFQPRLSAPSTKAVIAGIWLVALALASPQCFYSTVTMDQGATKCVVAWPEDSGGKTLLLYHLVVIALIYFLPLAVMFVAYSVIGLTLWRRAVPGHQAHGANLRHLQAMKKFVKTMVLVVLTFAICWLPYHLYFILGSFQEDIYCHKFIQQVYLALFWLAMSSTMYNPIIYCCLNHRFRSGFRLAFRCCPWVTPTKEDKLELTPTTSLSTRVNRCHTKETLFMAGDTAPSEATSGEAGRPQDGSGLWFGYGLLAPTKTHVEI
- Experimental protocol: Signal transduction (ST), intracellular Ca++ FLIPR, NK2
- Type: cell-based
- Experimental parameters: antagonist, read-out: NK2 pIC50 (converted)
Answers are plain numbers, in µM.

Below, each entry is followed by its recorded IC50 result.
{"columns": ["Molecule", "IC50 (µM)"],
 "data": [
  ["O=C(C1CCOC1)N1CCC2(CC1)CCN([C@H]1CCN(C(=O)c3cc(C(F)(F)F)cc(C(F)(F)F)c3)[C@H](Cc3ccccc3)C1)C(=O)O2 (stereo partly shown)", 7.94],
  ["O=C1OC2(CCN1Cc1ccsc1)CCN(C1CCN(C(=O)c3cc(C(F)(F)F)cc(C(F)(F)F)c3)C(Cc3ccccc3)C1)CC2 (stereo not shown) [Compound 2.7]", 3.98],
  ["CCC(CC)CN1CCC2(CCN(C3CCN(C(=O)c4cc(C(F)(F)F)cc(C(F)(F)F)c4)C(Cc4ccccc4)C3)CC2)OC1=O (single isomer, unassigned) [Compound 2.4]", 5.01],
  ["O=C(c1ccoc1)N1CCC2(CC1)CCN(C1CCN(C(=O)c3cc(C(F)(F)F)cc(C(F)(F)F)c3)C(Cc3ccccc3)C1)C(=O)O2 (stereo not shown)", 7.94],
  ["Cc1nnsc1C(=O)N1CCC2(CC1)CCN(C1CCN(C(=O)c3cc(C(F)(F)F)cc(C(F)(F)F)c3)C(Cc3ccccc3)C1)C(=O)O2 (stereo not shown)", 6.31],
  ["O=C(c1cnccn1)N1CCC2(CC1)CCN(C1CCN(C(=O)c3cc(C(F)(F)F)cc(C(F)(F)F)c3)C(Cc3ccccc3)C1)C(=O)O2 (stereo not shown)", 7.94],
  ["O=C(C1CC1)N1CCC2(CC1)CCN([C@H]1CCN(C(=O)c3cc(C(F)(F)F)cc(C(F)(F)F)c3)[C@H](Cc3ccccc3)C1)C(=O)O2", 1],
  ["CC(C)(C)C(=O)N1CCC2(CC1)CCN(C1CCN(C(=O)c3cc(C(F)(F)F)cc(C(F)(F)F)c3)C(Cc3ccccc3)C1)C(=O)O2 (stereo not shown)", 5.01]
]}

Could you report IC50 for every entry in the following list?
1. Cn1cccc1CN1CCC2(CCN(C3CCN(C(=O)c4cc(C(F)(F)F)cc(C(F)(F)F)c4)C(Cc4ccccc4)C3)CC2)OC1=O (single isomer, unassigned)
2. O=C1OC2(CCN1CC1CCCCC1)CCN(C1CCN(C(=O)c3cc(C(F)(F)F)cc(C(F)(F)F)c3)C(Cc3ccccc3)C1)CC2 (stereo not shown)

1. 2
2. 5.01
